Attribution: paper PMC7463651

Assay: Pharmacokinetic assessments in plasma, phase I/Ib study
Format: in vivo, human
Details: human, plasma, oral, 400 mg, 400 mg BID, C2D1; median
Description: Complete PK assessments were performed during dose escalation on Day 1 of Cycle 1 and 2 and pre-dose at other time points (pre-dose on Day 8 and Day 15 of Cycle 1 and 2, Day 1 and Day 15 of Cycle 3 and 4 and pre-dose on Cycle 5 and beyond). In the dose expansion phase, samples were collected pre-dose on Day 1 from Cycle 1 to Cycle 8. […]
PARAMETER_MEASURED: Tmax (min)
Numbers only, in min.

[in] Need Tmax of CC[C@H](Nc1ncnc2[nH]cnc12)c1oc2ccccc2c(=O)c1-c1cccc(F)c1 [Tenalisib] , thanks.
[out] 30

----------
experiment: Pharmacokinetic assessments in plasma, phase I/Ib study; assay type: in vivo, human; conditions: human, plasma, oral, 200 mg, 200 mg BID, C1D1; geometric mean; read-out: AUC(0-τ)
PARAMETER_MEASURED: AUC (ng·h/mL)
Give bare numbers, in ng·h/mL.

[in] Need AUC of `CC[C@H](Nc1ncnc2[nH]cnc12)c1oc2ccccc2c(=O)c1-c1cccc(F)c1` , thanks.
[out] 3500

----------
assay: Pharmacokinetic assessments in plasma, phase I/Ib study; assay type: in vivo, human; conditions: human, plasma, oral, 200 mg, 200 mg BID, C2D1; geometric mean; read-out: AUC(0-τ)
PARAMETER_MEASURED: AUC (ng·h/mL)
Answers are plain numbers, in ng·h/mL.

[in] Need AUC of CC[C@H](Nc1ncnc2[nH]cnc12)c1oc2ccccc2c(=O)c1-c1cccc(F)c1 [Tenalisib] , thanks.
[out] 3970

----------
assay: Pharmacokinetic assessments in plasma, phase I/Ib study; assay type: in vivo, human; details: human, plasma, oral, 400 mg, 400 mg BID, C2D1; geometric mean
PARAMETER_MEASURED: AUC(0-inf)
Hey, just the number and the unit after it is fine.

[in] Need AUC(0-inf) of `CC[C@H](Nc1ncnc2[nH]cnc12)c1oc2ccccc2c(=O)c1-c1cccc(F)c1` , thanks.
[out] 5600 ng·h/mL
